Listed next: entries and their corresponding pIC50.
assay: Inhibition of GABA uptake from rat diencephalon-midbrain,
Recall that pIC50 is obtained by taking minus log10 of the concentration measured in molar.

As a guide, the following entries are already answered.
O=C(O)CCCNCCC=C(c1ccccc1)c1ccccc1 :: 4.78
O=C(O)CC1CCN(CCC=C(c2ccccc2)c2ccccc2)C1 (stereo not drawn) :: 6.92

Continue with the next compound.
### Prompt Suppose we examine the compound O=C(O)C1CN(CCC=C(c2ccccc2)c2ccccc2)CCC1O (stereo not drawn) ; what pIC50 value has been reported?
### Response 6.59

###

assay: Distribution coefficient was evaluated; assay type: physicochemical; conditions: octanol/water
PROPERTY: logD
// response body must contain only the number

### Prompt Suppose we examine the compound O=C(O)C1CCCN(CCC=C(c2ccccc2)c2ccccc2)C1 (stereo unspecified) ; what logD value has been reported?
### Response 1.14

The reported measurements were obtained from ChEMBL document CHEMBL1122999.
